Assignment: determine reported Minimum cytotoxic concentration for the given compounds.
- Test system: HEL cultures
- ASSAY_CONTEXT: microscopically detectable alteration of normal cell morphology

Previously resolved entries follow.
O=C(O)c1cc(Br)cc(Br)c1-n1c(-c2ccccc2)nc2ccccc2c1=O >100 µg/mL
O=C(O)c1ccccc1-n1c(-c2ccccc2)nc2ccccc2c1=O >100 µg/mL
O=C(O)c1cc(Br)ccc1-n1c(-c2ccccc2)nc2ccccc2c1=O >100 µg/mL
O=C(O)c1cc(Br)cc(Br)c1-n1c(-c2ccccc2)nc2c(Br)cc(Br)cc2c1=O >100 µg/mL
O=C(O)c1ccccc1-n1c(-c2ccccc2)nc2c(Br)cc(Br)cc2c1=O >100 µg/mL
O=C(O)c1ccccc1-n1c(-c2ccccc2)nc2ccc(Br)cc2c1=O 100 µg/mL

I'm hoping you can list Minimum cytotoxic concentration for every compound here, please.
1. O=C(O)c1cc(Br)ccc1-n1c(-c2ccccc2)nc2ccc(Br)cc2c1=O
2. O=C(O)c1cc(Br)ccc1-n1c(-c2ccccc2)nc2c(Br)cc(Br)cc2c1=O

result:
["100 µg/mL", "100 µg/mL"]

====

Assignment: determine reported EC50 for the given molecules.
- Test system: Vaccinia virus
- ASSAY_TEXT: microbe, parasite or virus in culture
- Format: cell-based
- ASSAY_CONTEXT: Orthopoxvirus vaccinia, read-out: EC50 Vaccinia virus

Previously resolved entries follow.
MOLECULE	EC50
O=C(O)c1cc(Br)ccc1-n1c(-c2ccccc2)nc2ccc(Br)cc2c1=O	12 µg/mL
O=c1[nH]c(=O)n([C@H]2C[C@H](O)[C@@H](CO)O2)cc1/C=C/Br [Brivudin, reference compound]	6 µg/mL
O=C(O)c1ccccc1-n1c(-c2ccccc2)nc2c(Br)cc(Br)cc2c1=O	100 µg/mL
O=C(O)c1cc(Br)cc(Br)c1-n1c(-c2ccccc2)nc2c(Br)cc(Br)cc2c1=O	> 100 µg/mL
O=C(O)c1ccccc1-n1c(-c2ccccc2)nc2ccc(Br)cc2c1=O	> 20 µg/mL
O=C(O)c1ccccc1-n1c(-c2ccccc2)nc2ccccc2c1=O	> 100 µg/mL
O=C(O)c1cc(Br)ccc1-n1c(-c2ccccc2)nc2c(Br)cc(Br)cc2c1=O	> 20 µg/mL
O=C(O)c1cc(Br)cc(Br)c1-n1c(-c2ccccc2)nc2ccccc2c1=O	100 µg/mL

I'm hoping you can list EC50 for every molecule here, please.
1. Nc1ccn(C[C@@H](CO)OCP(=O)(O)O)c(=O)n1 [Cidofovir, reference compound]
2. NC(=O)c1ncn([C@@H]2O[C@H](CO)[C@@H](O)[C@H]2O)n1 [Ribavirin, reference compound]
3. O=C(O)c1cc(Br)ccc1-n1c(-c2ccccc2)nc2ccccc2c1=O

result:
1: 10 µg/mL; 2: > 250 µg/mL; 3: 100 µg/mL

====

- System: mock-infected MT-4 cells
- ASSAY_TEXT: Cytotoxicity for mock-infected MT-4 cells
- Format: cell-based
- ASSAY_CONTEXT: MTT, printed in both strain rows
Assignment: determine reported IC50b (50% cytotoxic concentration, reduces viability of mock-infected MT-4 cells by 50%) for the given molecules.
Numbers only, in µg/mL.

MOLECULE	ENDPOINT_RESULT
O=C(O)c1cc(Br)ccc1-n1c(-c2ccccc2)nc2ccccc2c1=O	88.20

I'm hoping you can list IC50b (50% cytotoxic concentration, reduces viability of mock-infected MT-4 cells by 50%) for every molecule here, please.
1. O=C(O)c1cc(Br)ccc1-n1c(-c2ccccc2)nc2ccc(Br)cc2c1=O
2. Cc1cn([C@H]2C[C@H](N=[N+]=[N-])[C@@H](CO)O2)c(=O)[nH]c1=O [AZT, reference compound]
3. O=C(O)c1cc(Br)ccc1-n1c(-c2ccccc2)nc2c(Br)cc(Br)cc2c1=O
4. O=C(O)c1ccccc1-n1c(-c2ccccc2)nc2c(Br)cc(Br)cc2c1=O

result:
1. 60.40
2. 65.90
3. 64.18
4. 83.15

====

Assignment: determine reported EC50 for the given compounds.
- System: Herpes simplex virus-2 (G)
- ASSAY_TEXT: microbe, parasite or virus in culture
- Type: cell-based
- ASSAY_CONTEXT: Human alphaherpesvirus 2, read-out: EC50 Herpes simplex virus-2 (G)
Answers are plain numbers, in µg/mL.

COMPOUND	UNITS	EC50
O=C(O)c1cc(Br)cc(Br)c1-n1c(-c2ccccc2)nc2ccccc2c1=O	µg/mL	100

I'm hoping you can list EC50 for every compound here, please.
1. Nc1ccn(C[C@@H](CO)OCP(=O)(O)O)c(=O)n1 [Cidofovir, reference compound]
2. O=C(O)c1ccccc1-n1c(-c2ccccc2)nc2ccccc2c1=O

result:
[0.8, 58]
